Biological target: CDK2/CyclinE (Homo sapiens (Human))
Experiment: CDK2/CyclinE kinase assay (Nanosyn, Caliper microfluidic)
Type: biochemical
Conditions: Table 2; read-out: CDK2/CycE IC50
readout: IC50 (nM)
Return type: number; implicit unit nM.

[Q] Field request: IC50 | item: `O=C1NCC2(CCCC2)n2c1cc1cnc(Nc3ccc(N4CCOCC4)nn3)nc12`
[A] 2280

[Q] What about this compound? `O=C1NCC2(CCCCC2)n2c1cc1cnc(Nc3ccc(N4CCN(C5CCC5)CC4)cn3)nc12`
[A] 628

[Q] Same for `CC(C)N1CCN(c2ccc(Nc3ncc4cc5n(c4n3)C3(CCCC3)CNC5=O)nc2)CC1`
[A] 3770

[Q] Another compound to check: `CCOCCN1CCN(c2ccc(Nc3ncc4cc5n(c4n3)C3(CCCC3)CNC5=O)nc2)CC1`
[A] 1890

[Q] Now this one: `O=C1NCC2(CCCCC2)n2c1cc1cnc(Nc3ccc(C(=O)N4CCNCC4)cn3)nc12`
[A] 124

[Q] Please answer likewise for `C[C@H](O)CN1[C@H](C)CN(c2ccc(Nc3ncc4cc5n(c4n3)C3(CCCCC3)CNC5=O)nc2)C[C@@H]1C`
[A] 3710

[Q] And for `C[C@H]1CN(c2ccc(Nc3ncc4cc5n(c4n3)C3(CCCCC3)CNC5=O)nc2)CCN1CC1CC1` ?
[A] 3040

[Q] Item: `CC(C)N1CCN(c2ccc(Nc3ncc4cc5n(c4n3)C3(CCCC3)CNC5=O)nn2)CC1`
[A] 4500

###

Overview of reported pIC50 across a group of compounds:
Molecular target: CDK4/CyclinD1 (Homo sapiens (Human))
Sequence (P11802 whole entry, species assumed): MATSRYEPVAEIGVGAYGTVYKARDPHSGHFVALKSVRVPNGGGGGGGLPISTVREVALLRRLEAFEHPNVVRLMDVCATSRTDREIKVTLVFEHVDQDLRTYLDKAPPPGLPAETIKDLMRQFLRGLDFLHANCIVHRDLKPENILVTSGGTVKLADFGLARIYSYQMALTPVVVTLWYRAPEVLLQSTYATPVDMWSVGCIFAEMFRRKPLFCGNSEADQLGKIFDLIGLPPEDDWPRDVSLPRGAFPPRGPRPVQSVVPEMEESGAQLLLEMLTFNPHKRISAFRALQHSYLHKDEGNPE
Sequence (P24385 whole entry partner, species assumed): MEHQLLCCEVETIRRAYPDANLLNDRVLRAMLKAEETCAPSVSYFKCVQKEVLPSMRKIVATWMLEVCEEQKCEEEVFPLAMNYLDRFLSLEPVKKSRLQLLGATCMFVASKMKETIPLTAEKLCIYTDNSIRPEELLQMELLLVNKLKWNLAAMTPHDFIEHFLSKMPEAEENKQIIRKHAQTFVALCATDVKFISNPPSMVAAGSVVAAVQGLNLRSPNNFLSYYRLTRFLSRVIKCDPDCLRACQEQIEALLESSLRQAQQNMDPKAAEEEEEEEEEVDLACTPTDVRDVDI
Experiment: CDK4/CyclinD1 kinase assay (Nanosyn, Caliper microfluidic)
Format: biochemical
Conditions: Table 2; read-out: CDK4/CycD1 IC50
Schema: pIC50 number; meaning minus log10 of the concentration expressed in molar units.

{"compound": "CC1(C)CN(c2ccc(Nc3ncc4cc5n(c4n3)C3(CCCCC3)CNC5=O)nc2)CCN1CC1CC1", "reported_value": 8.82}
{"compound": "CC1CN(c2ccc(Nc3ncc4cc5n(c4n3)C3(CCCC3)CNC5=O)nc2)CCN1CC1CC1 (stereo not shown)", "reported_value": 8.85}
{"compound": "CCN(CC)C1CCN(c2ccc(Nc3ncc4cc5n(c4n3)C3(CCCCC3)CNC5=O)nc2)CC1", "reported_value": 8.80}

Read the next record carefully.
[Q] Find pIC50 (CDK4/CyclinD1 (Homo sapiens (Human))) for the entry CCC(C)CN1CCN(c2ccc(Nc3ncc4cc5n(c4n3)C3(CCCC3)CNC5=O)nc2)CC1 (stereo not shown) [FFF]
[A] 8.33

###

Biological target: CDK2/CyclinE (Homo sapiens (Human), UniProt P24941)
Assay: CDK2/CyclinE kinase assay (Nanosyn, Caliper microfluidic)
Format: biochemical
Conditions: Table 2; read-out: CDK2/CycE IC50
Overview of reported IC50 across a group of compounds:
# output: bare number, implied unit µM

Check out these entries, answers already filled in.
{"compound": "CC(C)N1CCN(c2ccc(Nc3ncc4cc5n(c4n3)C3(CCCCC3)CNC5=O)nc2)CC1 [Compound GG]", "IC50 (µM)": 3.58}
{"compound": "C[C@H]1CN(c2ccc(Nc3ncc4cc5n(c4n3)C3(CCCCC3)CNC5=O)nc2)CCN1CCC(C)(C)C [M]", "IC50 (µM)": 2.28}
{"compound": "CCN1[C@H](C)CN(c2ccc(Nc3ncc4cc5n(c4n3)C3(CCCCC3)CNC5=O)nc2)C[C@@H]1C [FF]", "IC50 (µM)": 4.62}

Now let's try a different one.
[Q] I am curious: what IC50 value has been reported for CC(C)N1CCN(C(=O)c2ccc(Nc3ncc4cc5n(c4n3)C3(CCCCC3)CNC5=O)nc2)CC1 [II] ?
[A] 0.367
